Entries and their IC50
Tested on: HT-1197 cells
Experiment: Cell-based assay: anti-proliferative activity, Cell Counting Kit-8, 72 hours (HT-1197, negative control without MELK expression)
Conditions: Homo sapiens, HT1197, 72 h, HT1197 cells (negative control, no MELK expression), 72 hours
Where a name gives a salt, the structure may show the parent alone.
Use µM as the unit, but write only the number.

COc1cc(-c2ccc3ncc(C(=O)C4CC4)c(-c4ccc(N5CCN(C)CC5)cc4)c3c2)cc(Cl)c1O [Example 438] ... 6.5
COc1cc(-c2ccc3ncc(C(C)=O)c(N[C@H]4CC[C@H](CN5CCC(N)C5)CC4)c3c2)cc(Cl)c1O (stereo partly shown) [Example 780, hydrochloride] ... 3.2
CC(=O)c1cnc2ccc(-c3cc(Cl)c(O)c(Cl)c3)cc2c1Nc1cnn(C2CCN(C)C2)c1 (stereo not shown) [Example 814, dihydrochloride] ... 0.78

Here is the next item to consider.
In: Please give measured IC50 of the following entry: O=C(c1cnc2ccc(-c3cc(Cl)c(O)c(Cl)c3)cc2c1Nc1ccc(N2CCC(O)C2)nc1)C1CC1 (stereo not shown) [Example 670]
Out: 5.3
